Assay: Blood concentration assay of sorafenib, mice bearing MHCC97-L tumours
Type: in vivo
Conditions: nude, mouse, plasma, po, 2 mg/kg, 2 h; intrahepatic MHCC97-L TPX2 tumour; 2 mg/kg oral
metric: concentration at 2 h (ng/mL)
Could you give me the number in ng/mL? Just the number is fine.

Please indicate concentration at 2 h recorded for CNC(=O)c1cc(Oc2ccc(NC(=O)Nc3ccc(Cl)c(C(F)(F)F)c3)cc2)ccn1
18.1

* * *

Assay: Sorafenib metabolism/clearance in subcutaneous tumor tissues, LC-MS/MS
Type: in vivo, nude mice
Details: nude, mouse, subcutaneous tumor tissue formed by MHCC97-L cells, other: injected directly into the tumor tissue, MHCC97-L subcutaneous tumour tissues, TPX2 overexpression group (rifampicin experiment); read-out: t1/2 values (converted)
metric: half-life (h)
Quick reminder: number only, in h, skip the unit.

Give the measured half-life for CNC(=O)c1cc(Oc2ccc(NC(=O)Nc3ccc(Cl)c(C(F)(F)F)c3)cc2)ccn1
14

* * *

Test: Blood concentration assay of sorafenib, mice bearing MHCC97-H tumours
Assay type: in vivo
Conditions: nude, mouse, plasma, po, 2 mg/kg, 2 h; intrahepatic MHCC97-H Control tumour; 2 mg/kg oral
Protocol: Table notes: After knockdown of TPX2 in MHCC97-H cells, the cells were inoculated with nude mice to form subcutaneous tumour tissue (the volume of tumour tissue was approximately 1 g) and then given 2 mg/kg via oral administration. After knockdown TPX2 in MHCC97-H cells, the cells were inoculated into nude mice to form subcutaneous tumour tissue and then in situ liver tumour tissue was established. […] Thereafter, blood levels of sorafenib were measured.
metric: concentration at 2 h (ng/mL)
Kindly provide the numeric value in ng/mL only, without the unit symbol.

Read off the recorded concentration at 2 h for CNC(=O)c1cc(Oc2ccc(NC(=O)Nc3ccc(Cl)c(C(F)(F)F)c3)cc2)ccn1
22.5

* * *

Assay: Sorafenib metabolism/clearance in cultured cells, LC-MS/MS
Format: in vitro ADME
Conditions: human, MHCC97-H cells, siTPX2, median (95% CI), read-out: t1/2 values (converted)
metric: half-life at 1 μmol/L (h)
Write it as a number; the unit h goes unstated.

Input CNC(=O)c1cc(Oc2ccc(NC(=O)Nc3ccc(Cl)c(C(F)(F)F)c3)cc2)ccn1 , output reported half-life at 1 μmol/L.
36.6

* * *

Assay: Blood concentration assay of sorafenib, mice bearing MHCC97-L tumours
Type: in vivo
Details: nude, mouse, plasma, oral, 2 mg/kg, 2 h; Subcutaneous MHCC97-L Control tumour; 2 mg/kg oral
metric: concentration at 2 h

Identify measured concentration at 2 h associated with CNC(=O)c1cc(Oc2ccc(NC(=O)Nc3ccc(Cl)c(C(F)(F)F)c3)cc2)ccn1 [sorafenib]
17.4 ng/mL

* * *

Assay: Sorafenib metabolism/clearance in subcutaneous tumor tissues, LC-MS/MS
Format: in vivo, nude mice
Conditions: nude, mouse, subcutaneous tumor tissue formed by MHCC97-L cells, MHCC97-L tumor tissues, Control; median (95% CI); read-out: t1/2 values (converted)
metric: half-life (h)
All answers are understood in h, so give the number only.

Answer with the recorded half-life of CNC(=O)c1cc(Oc2ccc(NC(=O)Nc3ccc(Cl)c(C(F)(F)F)c3)cc2)ccn1 [sorafenib] only.
28.3

* * *

Assay: Blood concentration assay of sorafenib, mice bearing MHCC97-L tumours
Type: in vivo
Conditions: nude, mouse, plasma, po, 2 mg/kg, 40 h; intrahepatic MHCC97-L Control tumour; 2 mg/kg oral
metric: concentration at 40 h (ng/mL)
The answer is to be given in ng/mL; state only the numeric part.

Check the records and state concentration at 40 h for CNC(=O)c1cc(Oc2ccc(NC(=O)Nc3ccc(Cl)c(C(F)(F)F)c3)cc2)ccn1
51.6
